Target: T1, MBP-UNC-15 (294–376) (C. elegans, UniProt P10567 294-376)
T1 sequence (looked up): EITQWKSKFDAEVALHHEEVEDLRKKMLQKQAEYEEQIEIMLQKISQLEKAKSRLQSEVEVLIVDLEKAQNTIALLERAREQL
Assay: BLI
measurementName: Kd
State the result as a value with its unit after it.

Query GST-UNC-89 (58–131) (domain or fragment, C. elegans, UniProt O01761 58-131, looked up) AGSESRSYPVYIAIQDYTPDKEDVEAIPLEQGQIVEVLDKKNSVRWLVRTKARPPRSGWVPGSYFETPTEFYKQ yields Kd of 1100 nM
